For each record, write down the corresponding inhibition at 2 µM.
Tested on: P. falciparum male gametocytes
assay remarks: P. falciparum Dual Gamete Formation Assay (PfDGFA), male readout (exflagellation)
Assay type: cell-based, Plasmodium falciparum NF54
recorded conditions: Plasmodium falciparum; PfDGFA at 2µM, 24h preincubation with gametocytes; replicate R4; read-out: % inhibition male (individual replicates) R4
Give bare numbers, in %.

Example results:
>>> result("CCn1c(-c2nonc2N)nc2c(-c3ccccc3)ncc(OCCCNCCCN3CCOCC3)c21.O=C(O)C(F)(F)F [TCMDC-135858]")
86.5
>>> result("FC(F)(F)c1ccc2[nH]c(-c3ccc(-c4cccc(CNCCN5CCNCC5)c4)cc3)nc2c1.O=C(O)C(F)(F)F [TCMDC-132864]")
94.9
>>> result("Cc1sc2ncnc(Sc3nnc(N)s3)c2c1C [TCMDC-124542]")
2.3

With those in mind, consider the next compound.
Ask: Please give the measured inhibition at 2 µM for this compound: COc1ccc(Nc2ncc(Cl)c(Nc3cccnc3C(N)=O)n2)cc1N1CCN(C)CC1.Cl [TCMDC-134163]
Result: 80.2

* * *

For each of the compounds below, state its % inhibition male (individual replicates) R4.
Test system: P. falciparum male gametocytes
assay remarks: P. falciparum Dual Gamete Formation Assay (PfDGFA), male readout (exflagellation)
Assay type: cell-based, Plasmodium falciparum NF54
recorded conditions: 2µM, 24h preincubation with gametocytes prior to induction of gametogenesis; replicate R4
Protocol: […] The Pf DGFA was performed as described in Delves et al. 2016 [17]. […] Exflagellation was recorded by capturing 10 frames over 1 s under brightfield illumination using a x4 objective with a 1.5x zoom (effectively x6) attached to an automated Nikon Ti fluorescence microscope. […] The plates were then returned to the microscope and female gametes imaged at x6 using fluorescence microscopy. […]
Answers are plain numbers, in %.

>>> result("COc1ccc2ccccc2c1CCCCN1CCN(CC(c2ccc(F)cc2)N2CCC(N3CCCC3)CC2)CC1.O=C(O)C(F)(F)F (stereo not shown)")
58.9

Hi team, please reply with % inhibition male (individual replicates) R4 for each item in this list.
1. Cl.c1ccc2c(NCCCCCCCCCNc3c4ccccc4nc4ccccc34)c3ccccc3nc2c1
2. O=C(/C=C/c1c(Cl)cccc1Cl)NC1CCC(CN2CCC(c3c[nH]c4ccncc34)CC2)CC1 (stereo not shown)
3. N=C(N)Nc1nc(-c2cccc(NC(=O)NCCc3c[nH]c4ccc(OCc5ccccc5)cc34)c2)cs1

Result:
1: 84.9; 2: 42.9; 3: 10.9

* * *

Test system: P. berghei ookinete development
assay remarks: P. berghei Ookinete Development Assay (PbODA)
Assay type: cell-based, Plasmodium berghei
recorded conditions: Mean TOX HepG2 over Pb ODA value; GREEN = >10-fold; RED = <10-fold
# note: boundary value 10000 maps to not met; Cytotox ratio Pb Ookinete below it maps to met

As a guide, the following entries are already answered.
>>> cat("CCS(=O)(=O)Nc1ccc2c(c1)/C(=C(/Nc1ccc(CN3CCCCC3)cc1)c1ccccc1)C(=O)N2")
"met"
>>> cat("Cl.NCC1(c2nc(-c3ccc(Cl)c(O)c3)c(-c3ccncc3)[nH]2)CCCCC1")
"not met"
>>> cat("Cc1cccc(Nc2nc(N[C@@H]3CCCNC3)nc3cc[nH]c(=O)c23)c1.O=C(O)C(F)(F)F")
"met"

Ask: Bench note: check whether COc1ccc(Nc2ncc(OC)c(Nc3ccccc3C(N)=O)n2)cc1N1CCN(C)CC1.O=CO shows Cytotox ratio Pb Ookinete below 10000
Result: not met

Ask: I'd appreciate it if you could check whether CCC1=C[C@@H]2CN(C1)Cc1c([nH]c3ccccc13)[C@@](C(=O)OC)(c1cc3c(cc1OC)N(C)[C@H]1[C@@](O)(C(=O)OC)[C@H](O)[C@]4(CC)C=CCN5CC[C@]31[C@@H]54)C2.O=S(=O)(O)O has Cytotox ratio Pb Ookinete smaller than 10000.
Result: not met

Ask: Regarding Cc1ccc(-n2c(Sc3ncnc4sccc34)nnc2N2CCCC2)cc1 , kindly confirm whether its Cytotox ratio Pb Ookinete is beneath 10000.
Result: not met

Ask: Threshold test, Cytotox ratio Pb Ookinete < 10000: COc1ccc(-c2cnc(N)c(-c3ccc(C(N)=O)cc3)c2)cc1OC
Result: not met

Ask: is_below(Cytotox ratio Pb Ookinete, 10000) for COc1ccc2nc(-c3cc(-c4ccc(NC(=O)C(C)C)cc4)cnc3N)[nH]c2c1 ?
Result: not met
